System: Amaranthus palmeri (AMAPA)
Assay: Post-Emergence Test (herbicidal, glasshouse pots)
Assay type: in vivo
Details: rate 250 g/ha; evaluated after 13 days
property: Post-Emergence Test AMAPA percentage damage (five-point scale)

## Task Which measured Post-Emergence Test AMAPA percentage damage (five-point scale) belongs to C/C=C(\C)COc1cc(=O)c(C(=O)O)c(-c2ccc(Cl)c(Cl)c2)n1CC , tested on Amaranthus palmeri (AMAPA)?
## Result 1 (1=0-20%)

## Task Which measured Post-Emergence Test AMAPA percentage damage (five-point scale) belongs to CCn1c(OC2CC2)cc(=O)c(C(=O)O)c1-c1ccc(Cl)c(Cl)c1 , tested on Amaranthus palmeri (AMAPA)?
## Result 2 (2=21-40%)

## Task Which measured Post-Emergence Test AMAPA percentage damage (five-point scale) belongs to CCn1c(Oc2ccc(C)c(F)c2)cc(=O)c(C(=O)O)c1-c1ccc(C#N)c(Cl)c1 , tested on Amaranthus palmeri (AMAPA)?
## Result 1 (1=0-20%)

## Task Which measured Post-Emergence Test AMAPA percentage damage (five-point scale) belongs to CCn1cc(Oc2cc(=O)c(C(=O)O)c(-c3ccc(Cl)c(Cl)c3)n2CC)cn1 , tested on Amaranthus palmeri (AMAPA)?
## Result 3 (3=41-60%)

## Task Which measured Post-Emergence Test AMAPA percentage damage (five-point scale) belongs to CCc1cc(Oc2cc(=O)c(C(=O)O)c(-c3ccc(Cl)c(Cl)c3)n2CC)no1 , tested on Amaranthus palmeri (AMAPA)?
## Result 1 (1=0-20%)

## Task Which measured Post-Emergence Test AMAPA percentage damage (five-point scale) belongs to C#CC(C)Oc1cc(=O)c(C(=O)O)c(-c2ccc(Cl)c(Cl)c2)n1CC (centres unmarked) , tested on Amaranthus palmeri (AMAPA)?
## Result 4 (4=61-80%)

## Task Which measured Post-Emergence Test AMAPA percentage damage (five-point scale) belongs to CCn1c(OC)cc(=O)c(C(=O)O)c1-c1ccc(Cl)c(Cl)c1 , tested on Amaranthus palmeri (AMAPA)?
## Result 0

## Task Which measured Post-Emergence Test AMAPA percentage damage (five-point scale) belongs to CCn1c(Oc2ccc(C)cc2)cc(=O)c(C(=O)O)c1-c1ccc(Cl)c(Cl)c1 , tested on Amaranthus palmeri (AMAPA)?
## Result 4 (4=61-80%)

## Task Which measured Post-Emergence Test AMAPA percentage damage (five-point scale) belongs to CCn1c(Oc2ccc(C(F)(F)F)cc2)cc(=O)c(C(=O)O)c1-c1ccc(Cl)c(Cl)c1 , tested on Amaranthus palmeri (AMAPA)?
## Result 4 (4=61-80%)

## Task Which measured Post-Emergence Test AMAPA percentage damage (five-point scale) belongs to CCn1c(Nc2ccc(F)cc2)cc(=O)c(C(=O)O)c1-c1ccc(Cl)c(Cl)c1 , tested on Amaranthus palmeri (AMAPA)?
## Result 1 (1=0-20%)

## Task Which measured Post-Emergence Test AMAPA percentage damage (five-point scale) belongs to CCn1ccc(Oc2cc(=O)c(C(=O)O)c(-c3ccc(Cl)c(Cl)c3)n2CC)n1 , tested on Amaranthus palmeri (AMAPA)?
## Result 4 (4=61-80%)

## Task Which measured Post-Emergence Test AMAPA percentage damage (five-point scale) belongs to CCn1c(Oc2cnsn2)cc(=O)c(C(=O)O)c1-c1ccc(Cl)c(Cl)c1 , tested on Amaranthus palmeri (AMAPA)?
## Result 2 (2=21-40%)

## Task Which measured Post-Emergence Test AMAPA percentage damage (five-point scale) belongs to CCn1c(Oc2cc(C3CC3)on2)cc(=O)c(C(=O)O)c1-c1ccc(Cl)c(Cl)c1 , tested on Amaranthus palmeri (AMAPA)?
## Result 4 (4=61-80%)

## Task Which measured Post-Emergence Test AMAPA percentage damage (five-point scale) belongs to CCn1c(Oc2ccc(C)c(F)c2)cc(=O)c(C(=O)O)c1-c1ccc(Cl)c(Cl)c1 , tested on Amaranthus palmeri (AMAPA)?
## Result 2 (2=21-40%)

## Task Which measured Post-Emergence Test AMAPA percentage damage (five-point scale) belongs to CCn1c(Nc2ccccc2F)cc(=O)c(C(=O)O)c1-c1ccc(Cl)c(Cl)c1 , tested on Amaranthus palmeri (AMAPA)?
## Result 1 (1=0-20%)

## Task Which measured Post-Emergence Test AMAPA percentage damage (five-point scale) belongs to CCn1c(Oc2cc(C)on2)cc(=O)c(C(=O)O)c1-c1ccc(Cl)c(Cl)c1 , tested on Amaranthus palmeri (AMAPA)?
## Result 0

## Task Which measured Post-Emergence Test AMAPA percentage damage (five-point scale) belongs to CCn1c(Oc2ccc3nccnc3c2)cc(=O)c(C(=O)O)c1-c1ccc(Cl)c(Cl)c1 , tested on Amaranthus palmeri (AMAPA)?
## Result 1 (1=0-20%)

---

Tested on: Amaranthus retoflexus (AMARE)
Assay: Pre-Emergence Test (herbicidal, glasshouse pots)
Format: in vivo
Conditions: rate 250 g/ha, evaluated after 13 days, five-point scale
property: percentage damage caused to the plant, AMARE

## Task Which measured percentage damage caused to the plant, AMARE belongs to CCn1c(Oc2cc(C)on2)cc(=O)c(C(=O)O)c1-c1ccc(Cl)c(Cl)c1 , tested on Amaranthus retoflexus (AMARE)?
## Result 2 (2=21-40%)

## Task Which measured percentage damage caused to the plant, AMARE belongs to CCn1ccc(Oc2cc(=O)c(C(=O)O)c(-c3ccc(Cl)c(Cl)c3)n2CC)n1 , tested on Amaranthus retoflexus (AMARE)?
## Result 4 (4=61-80%)

## Task Which measured percentage damage caused to the plant, AMARE belongs to CCn1c(Oc2ccc(C)c(F)c2)cc(=O)c(C(=O)O)c1-c1ccc(C#N)c(Cl)c1 , tested on Amaranthus retoflexus (AMARE)?
## Result 1 (1=0-20%)

## Task Which measured percentage damage caused to the plant, AMARE belongs to C#CC(C)Oc1cc(=O)c(C(=O)O)c(-c2ccc(Cl)c(Cl)c2)n1CC (centres unmarked) , tested on Amaranthus retoflexus (AMARE)?
## Result 1 (1=0-20%)

## Task Which measured percentage damage caused to the plant, AMARE belongs to CCn1c(Oc2ccn(C3CC3)n2)cc(=O)c(C(=O)O)c1-c1ccc(Cl)c(Cl)c1 , tested on Amaranthus retoflexus (AMARE)?
## Result 4 (4=61-80%)

---

Please go through the items and note down their percentage damage caused to the plant, ECHCG.
Test system: Echinochloa crus-galli (ECHCG)
Assay: Pre-Emergence Test (herbicidal, glasshouse pots)
Format: in vivo
Settings: rate 1000 g/ha, evaluated after 13 days, five-point scale

## Task I would be grateful if you could share the reported percentage damage caused to the plant, ECHCG for CCn1c(Oc2cccc(Cl)c2Cl)cc(=O)c(C(=O)O)c1-c1ccc(Cl)c(Cl)c1 .
## Result 0

## Task I would be grateful if you could share the reported percentage damage caused to the plant, ECHCG for CCn1c(Nc2ncc(F)cc2F)cc(=O)c(C(=O)O)c1-c1ccc(Cl)c(Cl)c1 .
## Result 1 (1=0-20%)

## Task I would be grateful if you could share the reported percentage damage caused to the plant, ECHCG for CCn1c(Oc2cccc(F)c2)cc(=O)c(C(=O)O)c1-c1ccc(Cl)c(Cl)c1 .
## Result 5 (5=81-100%)

---

System: Amaranthus retoflexus (AMARE)
Assay: Post-Emergence Test (herbicidal, glasshouse pots)
Format: in vivo
Conditions: rate 250 g/ha; evaluated after 13 days
Please go through the items and note down their Post-Emergence Test AMARE percentage damage (five-point scale).

## Task I would be grateful if you could share the reported Post-Emergence Test AMARE percentage damage (five-point scale) for CCn1c(Oc2ccc(Cl)cn2)cc(=O)c(C(=O)O)c1-c1ccc(Cl)c(Cl)c1 [Compound 38] .
## Result 4 (4=61-80%)

## Task I would be grateful if you could share the reported Post-Emergence Test AMARE percentage damage (five-point scale) for CCn1c(Oc2ccc(C)c(F)c2)cc(=O)c(C(=O)O)c1-c1ccc(C#N)c(Cl)c1 [Compound 73] .
## Result 1 (1=0-20%)

## Task I would be grateful if you could share the reported Post-Emergence Test AMARE percentage damage (five-point scale) for C/C=C(\C)COc1cc(=O)c(C(=O)O)c(-c2ccc(Cl)c(Cl)c2)n1CC [Compound 63] .
## Result 2 (2=21-40%)

## Task I would be grateful if you could share the reported Post-Emergence Test AMARE percentage damage (five-point scale) for CCn1ccc(Oc2cc(=O)c(C(=O)O)c(-c3ccc(Cl)c(Cl)c3)n2CC)n1 [Compound 57] .
## Result 4 (4=61-80%)

---

Tested on: Amaranthus palmeri (AMAPA)
Experiment: Pre-Emergence Test (herbicidal, glasshouse pots)
Type: in vivo
Conditions: rate 1000 g/ha, evaluated after 13 days, five-point scale
property: percentage damage caused to the plant, AMAPA

## Task I would be grateful if you could share the reported percentage damage caused to the plant, AMAPA for CCn1c(Nc2ccc(C)c(C(F)(F)F)c2)cc(=O)c(C(=O)O)c1-c1ccc(Cl)c(Cl)c1 .
## Result 0

## Task I would be grateful if you could share the reported percentage damage caused to the plant, AMAPA for CCn1c(Oc2ccc(F)cc2)cc(=O)c(C(=O)O)c1-c1ccc(Cl)c(Cl)c1 .
## Result 3 (3=41-60%)

## Task I would be grateful if you could share the reported percentage damage caused to the plant, AMAPA for CCn1c(Oc2cncc(Cl)c2)cc(=O)c(C(=O)O)c1-c1ccc(Cl)c(Cl)c1 .
## Result 4 (4=61-80%)

## Task I would be grateful if you could share the reported percentage damage caused to the plant, AMAPA for CCn1c(Oc2cccc(Cl)c2Cl)cc(=O)c(C(=O)O)c1-c1ccc(Cl)c(Cl)c1 .
## Result 0

## Task I would be grateful if you could share the reported percentage damage caused to the plant, AMAPA for CCn1c(Oc2cc(F)ccc2Cl)cc(=O)c(C(=O)O)c1-c1ccc(Cl)c(Cl)c1 .
## Result 0

## Task I would be grateful if you could share the reported percentage damage caused to the plant, AMAPA for CCn1c(Oc2cc(F)cc(F)c2)cc(=O)c(C(=O)O)c1-c1ccc(Cl)c(Cl)c1 .
## Result 1 (1=0-20%)

## Task I would be grateful if you could share the reported percentage damage caused to the plant, AMAPA for CCn1c(Oc2ccccc2F)cc(=O)c(C(=O)O)c1-c1ccc(Cl)c(Cl)c1 .
## Result 1 (1=0-20%)

## Task I would be grateful if you could share the reported percentage damage caused to the plant, AMAPA for CCn1c(Oc2ccc(OC)cc2)cc(=O)c(C(=O)O)c1-c1ccc(Cl)c(Cl)c1 .
## Result 1 (1=0-20%)

## Task I would be grateful if you could share the reported percentage damage caused to the plant, AMAPA for CCn1c(Oc2cccnc2F)cc(=O)c(C(=O)O)c1-c1ccc(Cl)c(Cl)c1 .
## Result 2 (2=21-40%)

## Task I would be grateful if you could share the reported percentage damage caused to the plant, AMAPA for CCn1c(Oc2ccc(Cl)cc2OC)cc(=O)c(C(=O)O)c1-c1ccc(Cl)c(Cl)c1 .
## Result 1 (1=0-20%)

## Task I would be grateful if you could share the reported percentage damage caused to the plant, AMAPA for CCn1c(Oc2cccc(F)c2)cc(=O)c(C(=O)O)c1-c1ccc(Cl)c(Cl)c1 .
## Result 4 (4=61-80%)

These data points were gathered from patent US20250324971A1.
